src = the Deep4Chem optical property database

Test: solvent given as SMILES
Details: in C1COCCO1
Please respond with condition met when measured absorption maximum is strictly beneath 400 nm, and with condition not met in all other cases.

entry smiles	class
Cc1nc2cc(/C=C/c3ccc(N(C)C)cc3)ccc2nc1-c1ccccc1	condition not met
CCC1=C(C2=C(C3=C(CC)S(=O)(=O)c4ccccc43)C(F)(F)C(F)(F)C2(F)F)c2ccccc2S1(=O)=O	condition met
CN(C)c1c2ccccc2cc2ccccc12	condition met
CC1(C)Cc2c(c3ccccc3c3nc4c(nc23)c2c(c3ccccc34)OC(C)(C)C2)O1	condition not met
CCCCCCCCCCCCCCCC[n+]1ccc(/C=C(\C)c2ccccc2)cc1	condition met
COc1ccc(C#Cc2ccc(C#N)cc2)cc1OC	condition met
CN(C)CCNc1ccc([N+](=O)[O-])cc1[N+](=O)[O-]	condition met
C=CCOC(=O)C(C#N)=C1C=C(/C=C/c2ccc(N(C)C)cc2)OC(/C=C/c2ccc(N(C)C)cc2)=C1	condition not met
O=C1Nc2ccccc2/C1=C/C(=O)c1ccc(O)cc1	condition met
CC1=NN(c2ccccc2)C(=O)/C1=C\c1cn(-c2ccccc2)nc1-c1ccc([N+](=O)[O-])cc1	condition met
CC(C)(C)c1ccc(-c2nc3c4ccccc4c4ccccc4c3n2-c2ccc(C(C)(C)C)cc2)cc1	condition met
CCOC(=O)CSc1nc(-c2ccccc2)c(C)c(C#N)c1C#N	condition met
CN(C)c1nc(N)nc2c1nc(C#N)n2Cc1ccccc1	condition met
CCCCN(CCCC)c1ccc(/C=C/c2ccc3nc(-c4ccccc4)c(/C=C/c4ccc(N(C)C)cc4)nc3c2)cc1	condition not met
COC(=O)c1nc2cnc(N)nc2n1Cc1ccccc1	condition met
O=Cc1cc(O)ccc1O	condition met
COc1ccc(C(=O)/C=C2\C(=O)Nc3ccccc32)c(OC)c1	condition met
CC(C)(C)NS(=O)(=O)c1ccc2c(c1)C(=O)/C(=C1\Sc3ccc(S(=O)(=O)NC(C)(C)C)cc3C1=O)S2	condition not met
CCCn1c(=O)c(/C=C/c2nc3ccc(C)cc3n(CCC)c2=O)nc2ccc(C)cc21	condition not met
COc1ccc2n1[B-](F)(F)[N+]1=C(c3ccccc3)C=CC1=C2c1ccc(C)cc1	condition not met

----------
Entries and their measured absorption maximum follow.
Test: solvent given as SMILES
Settings: in CCCCCC

entry smiles	absorption maximum, nm
O=C1c2ccccc2S(=O)(=O)c2ccc(-n3c4ccccc4c4ccccc43)cc21	404
COc1ccc(-n2nc(C#N)c(NC3CCCCC3)n2)cc1	325
F[B-]1(F)n2cccc2C(c2c3ccccc3cc3ccccc23)=C2C=CC=[N+]21	505
CCOC(=O)COc1ccc(/C=C/c2c(CC)c(C)c3n2[B-](F)(F)[N+]2=C(c4[nH]c(C)c(CC)c4C)c4ccccc4C2=C3C)cc1	677
CCCCCCCCCCCCCCCC[n+]1ccc(/C=C/c2ccccc2O)cc1	530.1
COc1ccc(C(=O)/C=C2\C(=O)Nc3ccccc32)c(OC)c1	333
COc1ccc(C#Cc2c3ccccc3c3n2[B-](F)(F)[N+]2=C(C)C=C(C)C2=C3)cc1	611
CC(C)(C)c1ccc2ccc3cccc4ccc1c2c34	338
CN(C)/C=N\c1ccc2c3c(cccc13)C(=O)c1ccccc1-2	437
O=S(=O)(c1ccccc1)c1ccc(-c2ccc3c(c2)c2cc(-c4ccc(S(=O)(=O)c5ccccc5)cc4)ccc2n3-c2ccccc2)cc1	343
CCCCCCC(CCCCCC)N1C(=O)c2cccc3c(-c4ccc(OC)c5cccc(C)c45)ccc(c23)C1=O	326.6
O=C1c2cccc3cc4ccccc4c(c23)C(=O)N1Cc1ccccn1	427
N#CC1=C(c2ccc(-c3cccs3)s2)CC1	361
CC(=O)N(Cc1ccccn1)c1c2ccccc2c2c3c(cccc13)C(=O)N(Cc1ccccn1)C2=O	432
CCC1(CC)c2cc(B(c3c(C)cc(C)cc3C)c3c(C)cc(C)cc3C)ccc2-c2c1c1c(c3c2C(CC)(CC)c2cc(N(c4ccccc4)c4ccccc4)ccc2-3)C(CC)(CC)c2cc(B(c3c(C)cc(C)cc3C)c3c(C)cc(C)cc3C)ccc2-1	361

----------
Assay: solvent given as SMILES
Conditions: in ClC(Cl)Cl

molecule	absorption maximum / nm
COc1ccc(-c2oc3cccc4c5c(-c6ccc(OC)cc6)c(=N)oc6cccc(c2c34)c65)cc1	408
O=c1c2ccccc2sc2ccc(-n3c4ccccc4c4ccccc43)cc12	388
O=S(=O)(c1cccc(-n2c3ccccc3c3ccccc32)c1)c1cccc(-n2c3ccccc3c3ccccc32)c1	338
O=C1CC(c2ccc(Cl)cc2)c2c(c3ccccc3c3nc4ccccc4nc23)O1 (stereo not given)	410
CC(C)(C)c1cccc2c1oc1nc3oc4ccc(-n5c6ccccc6c6ccccc65)cc4c3cc12	348
c1ccc2cc(-n3c4ccccc4c4ccccc43)ccc2c1	321
CN1C(=CC2=C([O-])C(=CC3=[N+](C)c4ccccc4C3(C)C)C2=C2C(=O)NC(=O)NC2=O)C(C)(C)c2ccccc21	644
O=[N+]([O-])c1ccc(C#Cc2ccc3ccccc3c2)cc1	338
F[B-]1(F)OC(c2ccc(C(F)(F)F)cc2)=Cc2cc(Cl)nc[n+]21	372
COc1ccc(-c2ncc3ccccn23)cc1	306

----------
Assay: solvent given as SMILES
Settings: in CC(C)=O

entry smiles	unit tag	absorption maximum
c1ccc(-c2nn(-c3ccccc3)c3nc4ccccc4cc23)cc1	nm	396.04
COc1cc2c(cc1-c1ccccc1)Cc1c3c(c4c(c1-2)-c1cc(OC)c(-c2ccccc2)cc1C4)C(=O)N(CCC(C)C)C3=O	nm	407
O=c1c(Nc2ccccc2)c([O-])c1=[NH+]c1ccccc1	nm	398

----------
Assay: solvent given as SMILES
Conditions: in CCOC(C)=O
Entries and their measured absorption maximum follow.

entry smiles	unit tag	absorption maximum
CCOC(=O)/C(C#N)=C\c1cn(-c2ccccc2)nc1-c1ccccc1	nm	346
CC(C)(C)c1ccc(-c2nc3c4ccccc4c4ccccc4c3n2-c2ccc(C(C)(C)C)cc2)cc1	nm	313
F[B-]1(F)n2c(Cl)ccc2C(c2c(Cl)cccc2Cl)=C2C=CC(NCc3ccccc3)=[N+]21	nm	497
CC1=CC(C)=[N+]2C1=C(c1ccc(N3CCCCC3)cc1)c1c(C)cc(C)n1[B-]2(F)F	nm	498

----------
Assay: solvent given as SMILES
Settings: in C1CCCCC1
test readout: absorption maximum (nm)

entry smiles	test readout	experimental result
CC(C)c1cc(C(C)C)c(B2c3cc(-n4c5ccccc5c5ccccc54)ccc3N(c3ccccc3)c3ccc(-n4c5ccccc5c5ccccc54)cc32)c(C(C)C)c1	absorption maximum	400
O=c1cc(C(F)(F)F)c2cc3c4c(c2o1)CCCN4CCC3	absorption maximum	393
COc1c2ccccc2c(OC)c2c1c1cccc(OC)c1n2C	absorption maximum	409

----------
Entries and their measured absorption maximum follow.
Assay: solvent given as SMILES
Conditions: in Cc1ccccc1
test readout: absorption maximum

compound	test readout	experimental result
COC(=O)/C(C#N)=c1\s/c(=c2/s/c(=C(/C#N)C(=O)OC)c3cc(-c4ccccc4)sc23)c2sc(-c3ccccc3)cc12	absorption maximum	605 nm
N#Cc1cc2ccc(cc2)c2cccc3cccc(c4ccc(cc4)cc(C#N)c4ccc(cc4)c4cccc5cccc(c6ccc1cc6)c54)c32	absorption maximum	350 nm
CCn1c2sccc2c2c3nsnc3c3c4ccsc4n(CC)c3c21	absorption maximum	423 nm
CCCCC1=Cc2c3ccc4cccc5ccc(c6cc(-c7ccccc7)n(c26)P1(=O)c1ccccc1)c3c45 (stereo unspecified)	absorption maximum	433 nm
Cn1c(=O)c(/N=N/c2ccc(S(=O)(=O)O)c3ccccc23)c(O)c2ccccc21	absorption maximum	469 nm
O=c1[nH]c2[n+](c3ccccc13)[B-](F)(F)Oc1ccccc1-2	absorption maximum	354 nm

----------
Assay: solvent given as SMILES
Conditions: in C1CCOC1

entry smiles	absorption maximum (nm)
COc1cc2c(cc1-c1ccccc1)Cc1c3c(c4c(c1-2)-c1cc(OC)c(-c2ccccc2)cc1C4)C(=O)N(CCC(C)C)C3=O	405
CCCCCCC1(CCCCCC)c2cc(-c3nc(-c4ccc5c(c4)C(CCCCCC)(CCCCCC)c4cc(N6c7ccccc7Sc7ccccc76)ccc4-5)nc(-c4ccc5c(c4)C(CCCCCC)(CCCCCC)c4cc(N6c7ccccc7Sc7ccccc76)ccc4-5)n3)ccc2-c2ccc(N3c4ccccc4Sc4ccccc43)cc21	400
CCn1c2ccccc2c2cc(C#Cc3cc(C#Cc4ccc5c(c4)c4ccccc4n5CC)nc(S(C)(=O)=O)n3)ccc21	408

----------
Test: solvent given as SMILES
Conditions: in CC#N

entry smiles	absorption maximum (nm)
Nc1nc2ccccc2[n+]([O-])n1	407
CN(C)c1ccc(/C=C/c2nc3ccccc3s2)cc1	401
Cc1cc2c(ccc3c(C)[n+](C)c(C)cc32)c(C)[n+]1C	406
COC(=O)c1cc(=O)n(C)c2cc(-c3ccc(Oc4ccccc4)cc3)sc12	396

----------
Test: solvent given as SMILES
Settings: in CO
Entries and their measured absorption maximum follow.
test readout: absorption maximum

molecule	experimental result
O=c1c(Nc2ccccc2)c([O-])c1=[NH+]c1ccccc1	390 nm
COc1ccc(OC)c(C=O)c1	352 nm
CN(C)c1cc(C#N)c(N(C)C)c(C#N)c1	392.31 nm
CC1=C(Cc2ccccc2)C(C)=[N+]2C1=C(C)c1c(C)c(-c3csc(N4CCOCC4)n3)c(C)n1[B-]2(F)F	514 nm
COc1c2ccccc2c(OC)c2c1c1cccc(OC)c1n2C	407 nm
O=P1(c2ccccc2)C2=C(c3ccccc31)[Si](c1ccccc1)(c1ccccc1)c1cc(N(c3ccccc3)c3ccccc3)ccc12 (configuration not stated)	466 nm
CCCCN1C(=O)c2cccc3c([O-])c(/C=C/c4sc5ccccc5[n+]4CC)cc(c23)C1=O	545.83 nm
CC1(C)C(/C=C/C2=C(Oc3ccc(CCN=C=S)cc3F)C(=C/C=C3/N(CCCS(=O)(=O)[O-])c4ccccc4C3(C)C)/CCC2)=[N+](CCCS(=O)(=O)[O-])c2ccccc21	768 nm
Nc1ccc(-c2ccc(N)cc2)cc1	281 nm
F[B-]1(F)n2c(Cl)ccc2C(c2c(Cl)cccc2Cl)=C2C=CC(NCc3ccccc3)=[N+]21	488 nm
O=S(=O)(c1ccccc1)c1ccc(-c2ccc3c(c2)c2cc(-c4ccc(S(=O)(=O)c5ccccc5)cc4)ccc2n3-c2ccccc2)cc1	343 nm
O=P1(c2ccccc2)C2=C(c3ccccc31)C(c1ccccc1)(c1ccccc1)c1cc(N(c3ccccc3)c3ccccc3)ccc12 (configuration not stated)	438 nm
